Experiment: Cytotoxicity test, CCK-8 assay
Details: dog, MDCK cells
ATTRIBUTE_MEASURED: viability at 24 h, 50 µM (%)
Numbers only, in %.

Value lookup for viability at 24 h, 50 µM; key = `COc1cc2c(=O)oc3c(OC)c(O)cc4c(=O)oc(c1OC)c2c34` 67.9

----------
Target: AChE (Type VI-S from Electrophorus electricus) (Electrophorus electricus, UniProt O42275)
Sequence (O42275 24-633): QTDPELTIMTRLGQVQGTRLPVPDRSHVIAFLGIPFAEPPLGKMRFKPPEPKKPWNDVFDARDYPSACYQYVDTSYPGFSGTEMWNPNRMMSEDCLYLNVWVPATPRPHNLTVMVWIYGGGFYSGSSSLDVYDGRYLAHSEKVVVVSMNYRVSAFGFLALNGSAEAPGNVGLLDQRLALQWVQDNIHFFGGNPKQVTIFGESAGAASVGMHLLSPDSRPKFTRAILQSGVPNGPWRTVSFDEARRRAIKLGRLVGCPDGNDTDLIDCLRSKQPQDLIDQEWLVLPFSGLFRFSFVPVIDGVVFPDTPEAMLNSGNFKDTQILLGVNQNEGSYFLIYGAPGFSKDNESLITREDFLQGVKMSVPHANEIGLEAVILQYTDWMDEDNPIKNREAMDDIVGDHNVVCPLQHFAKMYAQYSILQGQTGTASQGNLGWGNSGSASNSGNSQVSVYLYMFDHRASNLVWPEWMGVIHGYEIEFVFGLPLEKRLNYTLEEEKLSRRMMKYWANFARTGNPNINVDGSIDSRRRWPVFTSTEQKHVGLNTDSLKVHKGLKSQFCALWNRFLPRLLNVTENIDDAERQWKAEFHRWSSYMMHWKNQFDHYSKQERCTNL
Test: biochemical
IC50 vs 40 µM: less than gives T; not less than gives F.

Study these solved cases before continuing.
# check: IC50 < 40 µM for `COc1cc2c(=O)oc3c(OC)c(O)cc4c(=O)oc(c1OC)c2c34` T

# check: IC50 < 40 µM for `O=C(OCc1cc(O)c(O[C@@H]2O[C@H](CO)[C@@H](O)[C@H](O)[C@H]2O)c(O)c1)c1cc(O)c(O)c(Oc2c(C(=O)OCc3cc(O)c(O[C@@H]4O[C@H](CO)[C@@H](O)[C@H](O)[C@H]4O)c(O)c3)cc(O)c(O)c2O)c1` T

# check: IC50 < 40 µM for `O=c1oc2c(O)c(O)cc3c(=O)oc4c(O)c(O)cc1c4c23` F

# check: IC50 < 40 µM for `COc1cc2c(=O)oc3c(OC)c(O[C@@H]4O[C@H](CO)[C@@H](O)[C@H](O)[C@H]4O)cc4c(=O)oc(c1OC)c2c34` F

Now for a further molecule.
# check: IC50 < 40 µM for `COc1cc2c(=O)oc3c(OC)c(O[C@@H]4O[C@@H](C)[C@H](O)[C@@H](O)[C@H]4O)cc4c(=O)oc(c1OC)c2c34` T
